Biological target: human Kv7.2 (Homo sapiens (Human))
Sequence (O43526 whole entry): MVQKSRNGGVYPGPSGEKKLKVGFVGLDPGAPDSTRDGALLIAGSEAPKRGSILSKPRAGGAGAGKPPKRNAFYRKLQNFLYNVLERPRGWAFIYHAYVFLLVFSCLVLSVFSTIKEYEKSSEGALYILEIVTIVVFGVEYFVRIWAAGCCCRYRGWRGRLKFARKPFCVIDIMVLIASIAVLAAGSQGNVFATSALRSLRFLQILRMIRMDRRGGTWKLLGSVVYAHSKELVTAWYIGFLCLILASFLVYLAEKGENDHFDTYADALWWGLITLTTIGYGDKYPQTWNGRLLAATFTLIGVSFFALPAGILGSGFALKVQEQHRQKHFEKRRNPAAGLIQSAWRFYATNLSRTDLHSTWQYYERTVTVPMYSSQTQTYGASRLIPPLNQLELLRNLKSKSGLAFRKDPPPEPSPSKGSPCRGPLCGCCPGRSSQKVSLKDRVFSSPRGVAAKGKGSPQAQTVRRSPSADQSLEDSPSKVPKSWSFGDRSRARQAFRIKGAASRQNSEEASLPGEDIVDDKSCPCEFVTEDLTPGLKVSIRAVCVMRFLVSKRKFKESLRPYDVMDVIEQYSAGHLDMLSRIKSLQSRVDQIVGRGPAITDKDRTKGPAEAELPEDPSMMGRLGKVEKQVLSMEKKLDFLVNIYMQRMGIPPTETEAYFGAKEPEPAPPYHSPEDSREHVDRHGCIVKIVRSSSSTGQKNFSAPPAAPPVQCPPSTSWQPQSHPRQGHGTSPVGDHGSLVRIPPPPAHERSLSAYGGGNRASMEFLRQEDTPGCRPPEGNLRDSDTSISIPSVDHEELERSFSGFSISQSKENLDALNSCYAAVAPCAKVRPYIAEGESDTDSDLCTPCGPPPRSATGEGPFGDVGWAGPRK
Assay: SyncroPatch 384 electrophysiology, CHO cells stably expressing human Kv7.2
Type: cell-based
Conditions: Table A
Readings of EC50 for the listed compounds
recorded.metric: EC50 (nM)

INSERT INTO measurements (compound, readout_unit, measured_value) VALUES
  ('O=C(NCc1ccnc(OC(F)F)c1)NC1CC12CCC2 (stereo not shown) [Example 23]', 'nM', 1940),
  ('O=C(NCc1ccnc(OC(F)F)c1)NC1CCOC2(CCCC2)C1 (stereo not shown) [Example 14]', 'nM', 260),
  ('O=C(NCc1ccnc(OC(F)F)c1)N[C@@H]1CC2(CCC2)[C@@H]1O [Example 28]', 'nM', 500),
  ('O=C(NCc1ccnc(OC(F)F)c1)N[C@@H]1CCOC2(CCC2)C1 [Example 27]', 'nM', 260),
  ('O=C(NCc1ccnc(OC(F)F)c1)NC1C(F)(F)C12CCC2 (stereo not shown) [Example 24]', 'nM', 340),
  ('O=C(NCc1ccnc(OC(F)F)c1)NC1CCOC2(CCCC2(F)F)C1 (stereo not shown) [Example 21]', 'nM', 210),
  ('O=C(NCc1ccnc(OC(F)F)c1)NC1CCC2(C1)CC2(F)F (stereo not shown) [Example 19]', 'nM', 350);

###

Target: human Kv7.5/7.3 (Homo sapiens (Human), UniProt O43525+Q9NR82)
Sequence (Q9NR82 whole entry): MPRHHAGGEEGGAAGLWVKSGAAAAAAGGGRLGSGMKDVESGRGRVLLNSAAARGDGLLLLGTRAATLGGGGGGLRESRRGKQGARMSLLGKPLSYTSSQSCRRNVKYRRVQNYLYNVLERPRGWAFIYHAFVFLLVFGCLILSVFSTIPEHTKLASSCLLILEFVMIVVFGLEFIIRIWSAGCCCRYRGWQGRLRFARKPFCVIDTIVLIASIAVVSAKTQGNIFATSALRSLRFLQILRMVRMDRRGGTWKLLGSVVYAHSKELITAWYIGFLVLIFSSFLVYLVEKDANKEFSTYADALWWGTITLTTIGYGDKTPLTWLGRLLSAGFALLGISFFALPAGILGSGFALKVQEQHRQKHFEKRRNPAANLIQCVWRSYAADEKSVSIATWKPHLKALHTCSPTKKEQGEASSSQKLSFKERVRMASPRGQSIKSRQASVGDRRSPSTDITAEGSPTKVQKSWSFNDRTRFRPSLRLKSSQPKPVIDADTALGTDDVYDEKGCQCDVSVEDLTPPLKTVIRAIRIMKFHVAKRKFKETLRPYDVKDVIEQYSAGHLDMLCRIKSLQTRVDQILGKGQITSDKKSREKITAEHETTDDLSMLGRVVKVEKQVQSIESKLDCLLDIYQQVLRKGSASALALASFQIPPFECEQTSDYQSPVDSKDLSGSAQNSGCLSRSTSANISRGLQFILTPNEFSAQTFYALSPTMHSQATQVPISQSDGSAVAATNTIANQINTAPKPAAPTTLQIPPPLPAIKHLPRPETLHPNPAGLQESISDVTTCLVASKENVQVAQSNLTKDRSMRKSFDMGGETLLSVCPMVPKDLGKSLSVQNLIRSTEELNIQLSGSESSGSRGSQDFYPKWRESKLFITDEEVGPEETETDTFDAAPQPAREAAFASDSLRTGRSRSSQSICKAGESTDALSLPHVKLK
Sequence (O43525 whole entry): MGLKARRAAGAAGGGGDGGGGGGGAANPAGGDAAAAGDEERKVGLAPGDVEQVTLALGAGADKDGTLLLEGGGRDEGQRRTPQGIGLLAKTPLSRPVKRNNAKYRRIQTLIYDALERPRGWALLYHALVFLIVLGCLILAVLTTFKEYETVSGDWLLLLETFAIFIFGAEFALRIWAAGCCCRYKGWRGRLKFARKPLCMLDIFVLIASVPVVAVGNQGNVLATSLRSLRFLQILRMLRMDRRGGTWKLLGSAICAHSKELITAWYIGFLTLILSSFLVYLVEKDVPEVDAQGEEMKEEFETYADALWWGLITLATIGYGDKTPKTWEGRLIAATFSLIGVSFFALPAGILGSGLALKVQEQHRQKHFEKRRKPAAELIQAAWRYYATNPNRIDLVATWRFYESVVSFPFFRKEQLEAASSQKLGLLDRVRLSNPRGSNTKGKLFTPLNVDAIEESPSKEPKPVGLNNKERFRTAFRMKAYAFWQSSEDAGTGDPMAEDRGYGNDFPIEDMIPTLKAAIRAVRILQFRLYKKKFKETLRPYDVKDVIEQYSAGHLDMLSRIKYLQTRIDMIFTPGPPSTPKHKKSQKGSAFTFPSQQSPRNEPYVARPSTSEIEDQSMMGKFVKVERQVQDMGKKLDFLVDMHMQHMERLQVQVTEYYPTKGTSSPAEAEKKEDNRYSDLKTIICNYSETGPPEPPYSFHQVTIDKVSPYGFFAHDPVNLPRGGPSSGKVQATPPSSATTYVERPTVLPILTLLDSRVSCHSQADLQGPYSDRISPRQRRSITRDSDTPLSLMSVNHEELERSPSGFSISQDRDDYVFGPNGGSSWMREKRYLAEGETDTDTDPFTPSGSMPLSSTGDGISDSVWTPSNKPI
Experiment: SyncroPatch 384 electrophysiology, CHO cells stably expressing human Kv7.5/7.3
Format: cell-based
Details: Table A; Kv7.5/7.3 EC50 over Kv7.2 EC50
recorded.metric: Kv7.5/7.3/Kv7.2 selectivity ratio

INSERT INTO results (compound, tested_system, recorded_metric, measured_value) VALUES
  ('O=C(NCc1ccnc(OC(F)F)c1)N[C@@H]1CC2(CCC2)[C@@H]1O', 'human Kv7.5/7.3 (Homo sapiens (Human), UniProt O43525+Q9NR82)', 'Kv7.5/7.3/Kv7.2 selectivity ratio', '>60'),
  ('O=C(NCc1ccnc(OC(F)F)c1)NC1CCC2(C1)CC2(F)F (stereo not drawn)', 'human Kv7.5/7.3 (Homo sapiens (Human), UniProt O43525+Q9NR82)', 'Kv7.5/7.3/Kv7.2 selectivity ratio', '>86'),
  ('O=C(NCc1ccnc(OC(F)F)c1)NC1C(F)(F)C12CCC2 (stereo not drawn)', 'human Kv7.5/7.3 (Homo sapiens (Human), UniProt O43525+Q9NR82)', 'Kv7.5/7.3/Kv7.2 selectivity ratio', '>89'),
  ('O=C(NCc1ccnc(OC(F)F)c1)NC1CCOC2(CCCC2)C1 (stereo not drawn)', 'human Kv7.5/7.3 (Homo sapiens (Human), UniProt O43525+Q9NR82)', 'Kv7.5/7.3/Kv7.2 selectivity ratio', '>116'),
  ('O=C(NCc1ccnc(OC(F)F)c1)NC1CCOC2(CCCC2(F)F)C1 (stereo not drawn)', 'human Kv7.5/7.3 (Homo sapiens (Human), UniProt O43525+Q9NR82)', 'Kv7.5/7.3/Kv7.2 selectivity ratio', '>146'),
  ('O=C(NCc1ccnc(OC(F)F)c1)NC1CCOC2(CCC2)C1 (stereo not drawn)', 'human Kv7.5/7.3 (Homo sapiens (Human), UniProt O43525+Q9NR82)', 'Kv7.5/7.3/Kv7.2 selectivity ratio', '>87'),
  ('O=C(NCc1ccnc(OC(F)F)c1)N[C@@H]1CCOC2(CCC2)C1', 'human Kv7.5/7.3 (Homo sapiens (Human), UniProt O43525+Q9NR82)', 'Kv7.5/7.3/Kv7.2 selectivity ratio', '>115'),
  ('O=C(NCc1ccnc(OC(F)F)c1)NC1CC12CCC2 (stereo not drawn)', 'human Kv7.5/7.3 (Homo sapiens (Human), UniProt O43525+Q9NR82)', 'Kv7.5/7.3/Kv7.2 selectivity ratio', '>15'),
  ('O=C(NCc1ccnc(OC(F)F)c1)N[C@H]1CC2(CCC2)[C@@H]1O (racemic)', 'human Kv7.5/7.3 (Homo sapiens (Human), UniProt O43525+Q9NR82)', 'Kv7.5/7.3/Kv7.2 selectivity ratio', '>41');

###

Test: Human liver microsomal clearance
Format: in vitro ADME
Conditions: both sexes, liver microsomes, Table B, 0.5 μM compound, 0.25 mg/mL microsomes, NADPH, 37° C., read-out: Human liver microsomal intrinsic clearance CLint
Listing of recorded microsomal CLint at 0.5 μM by entry.
recorded.metric: microsomal CLint at 0.5 μM (µL/min/mg)

INSERT INTO assay_data (compound, readout_unit, measured_value) VALUES
  ('O=C(NCc1ccnc(OC(F)F)c1)NC1CC2(CC2)C1 [Example 8]', 'µL/min/mg', 5.2),
  ('O=C(NCc1ccnc(OC(F)F)c1)NC1CC2(C1)CC2(F)F (stereo not drawn) [Example 15]', 'µL/min/mg', 11.3),
  ('CC(F)(F)c1cc(CNC(=O)NC2CC3(CCC3)C2)ccn1 [Example 9]', 'µL/min/mg', 17.6),
  ('O=C(NCc1ccnc(OC(F)F)c1)NC1CC2(CC(F)C2)C1 (stereo not drawn) [Example 16]', 'µL/min/mg', 10.7),
  ('O=C(NCc1ccnc(OC(F)F)c1)N[C@H]1CC2(CCC2)[C@@H]1O (racemic) [Example 25]', 'µL/min/mg', 14.2),
  ('O=C(NCc1ccnc(OC(F)F)c1)N[C@@H]1CCOC2(CCC2)C1 [Example 27]', 'µL/min/mg', 20.5),
  ('O=C(NCc1ccnc(OC(F)F)c1)NC1CCOC2(CCCC2)C1 (stereo not drawn) [Example 14]', 'µL/min/mg', 20),
  ('O=C(NCc1ccnc(OC(F)F)c1)NC1CCOC2(CCC2)C1 (stereo not drawn) [Example 17]', 'µL/min/mg', 3.8),
  ('O=C(NCc1ccnc(OC(F)F)c1)N[C@H]1CC2(CCC2)[C@H]1O (racemic) [Example 26]', 'µL/min/mg', 11.5);

###

Listing: pEC50 of selected molecules
Target: UniProt:O43526
Experiment: SyncroPatch 384 electrophysiology, CHO cells stably expressing human Kv7.2
Type: cell-based
Details: Table 1; CHO cells, potassium current at -90 mV step, in presence of zinc pyrithione
pEC50: −log10 of the molar value.
recorded.metric: pEC50

INSERT INTO results (molecule, tested_system, recorded_metric, measured_value) VALUES
  ('O=C(NCc1ccnc(OC(F)F)c1)NC1COC12CCCCC2 (stereo not drawn)', 'UniProt:O43526', 'pEC50', 5.07),
  ('O=C(NCc1ccnc(OC(F)F)c1)NC1COC2(CCCCC2)C1 (stereo not drawn)', 'UniProt:O43526', 'pEC50', 6.35),
  ('O=C(NCc1ccnc(OCC(F)(F)F)c1)NC1CC2(CC2)C1', 'UniProt:O43526', 'pEC50', 6.77);

###

Assay: Human liver microsomal clearance
Type: in vitro ADME
Details: both sexes, liver microsomes, Table B, 0.5 μM compound, 0.25 mg/mL microsomes, NADPH, 37° C., read-out: Human liver microsomal intrinsic clearance CLint
Below: a set of entries, each annotated with reported microsomal CLint at 0.5 μM.
recorded.metric: microsomal CLint at 0.5 μM (µL/min/mg)

INSERT INTO assay_data (compound, measured_value) VALUES
  ('O=C(NCc1ccnc(OC(F)F)c1)NC1CCC2(CC1)CC2(F)F (stereo not shown) [Example 31]', 18.8),
  ('O=C(NCc1ccnc(OC(F)F)c1)NC1COC2(CCC2)C1 (stereo not shown) [Example 22]', 10.6),
  ('O=C(NCc1ccnc(OCC(F)(F)F)c1)NC1CC2(CC2)C1 [Example 12]', 15.2),
  ('O=C(NCc1ccnc(OC(F)F)c1)NC1CCOC2(CCCC2(F)F)C1 (stereo not shown) [Example 21]', 20.4);

###

Target: human Kv7.4 (Homo sapiens (Human))
Sequence (P56696 whole entry): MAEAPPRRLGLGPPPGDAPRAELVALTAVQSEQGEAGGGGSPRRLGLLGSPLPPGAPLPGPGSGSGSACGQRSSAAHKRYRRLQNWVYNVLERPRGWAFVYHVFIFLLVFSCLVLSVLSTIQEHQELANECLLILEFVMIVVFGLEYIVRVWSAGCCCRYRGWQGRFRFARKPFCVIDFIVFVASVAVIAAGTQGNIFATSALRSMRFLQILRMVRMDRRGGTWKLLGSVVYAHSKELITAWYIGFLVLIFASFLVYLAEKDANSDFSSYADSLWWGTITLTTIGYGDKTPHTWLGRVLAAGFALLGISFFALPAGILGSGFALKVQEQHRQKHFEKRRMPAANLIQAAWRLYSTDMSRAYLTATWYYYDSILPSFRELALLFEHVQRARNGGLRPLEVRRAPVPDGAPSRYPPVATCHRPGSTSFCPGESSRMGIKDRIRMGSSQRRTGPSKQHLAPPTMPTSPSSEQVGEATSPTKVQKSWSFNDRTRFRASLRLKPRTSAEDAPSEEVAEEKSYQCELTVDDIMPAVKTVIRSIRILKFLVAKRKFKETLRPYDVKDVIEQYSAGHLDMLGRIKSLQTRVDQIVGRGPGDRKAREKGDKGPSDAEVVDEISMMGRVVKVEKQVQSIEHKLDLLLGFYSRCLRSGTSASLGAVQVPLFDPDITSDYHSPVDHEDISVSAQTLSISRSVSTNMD
Assay: SyncroPatch 384 electrophysiology, CHO cells stably expressing human Kv7.4
Conditions: Table C
pEC50: −log10 of the molar value.
recorded.metric: pEC50

INSERT INTO assay_data (molecule, measured_value) VALUES
  ('O=C(NCc1ccnc(OC(F)F)c1)N[C@@H]1CCOC2(CCC2)C1', '< 4.52'),
  ('O=C(NCc1ccnc(OC(F)F)c1)NC1CCOC2(CCCC2(F)F)C1 (centres unmarked)', '< 4.52');

###

EC50 by entry:
Target: human Kv7.2 (Homo sapiens (Human))
Assay: SyncroPatch 384 electrophysiology, CHO cells stably expressing human Kv7.2
Format: cell-based
Settings: Table 1; CHO cells, potassium current at -90 mV step, in presence of zinc pyrithione
recorded.metric: EC50

INSERT INTO results (compound, tested_system, recorded_metric, measured_value) VALUES
  ('O=C(NCc1ccnc(OC(F)F)c1)NC1CC2(C1)CC2(F)F (stereo not shown)', 'human Kv7.2 (Homo sapiens (Human))', 'EC50', '3100 nM'),
  ('CC(F)COc1cc(CNC(=O)NC2CC3(CCC3)C2)ccn1 (stereo not shown)', 'human Kv7.2 (Homo sapiens (Human))', 'EC50', '60 nM'),
  ('O=C(NCc1ccnc(-n2cccn2)c1)NC1CCOC2(CCCC2)C1 (stereo not shown)', 'human Kv7.2 (Homo sapiens (Human))', 'EC50', '8490 nM'),
  ('O=C(NCc1ccnc(OC(F)F)c1)N[C@@H]1CC2(CCC2)[C@@H]1O', 'human Kv7.2 (Homo sapiens (Human))', 'EC50', '500 nM'),
  ('CC(F)(F)c1cc(CNC(=O)NC2CC3(CCC3)C2)ccn1', 'human Kv7.2 (Homo sapiens (Human))', 'EC50', '190 nM'),
  ('O=C(NCc1ccnc(OCC2CC2)c1)NC1CC2(CCC2)C1', 'human Kv7.2 (Homo sapiens (Human))', 'EC50', '50 nM'),
  ('O=C(NCc1ccnc(OC(F)F)c1)NC1CCC2(C1)CC2(F)F (stereo not shown)', 'human Kv7.2 (Homo sapiens (Human))', 'EC50', '350 nM'),
  ('O=C(NCc1ccnc(OC(F)F)c1)NC1CC12CCC2 (stereo not shown)', 'human Kv7.2 (Homo sapiens (Human))', 'EC50', '1940 nM'),
  ('O=C(NCc1ccnc(OC(F)F)c1)NC1CCC2(CCC2)OC1 (stereo not shown)', 'human Kv7.2 (Homo sapiens (Human))', 'EC50', '550 nM'),
  ('O=C(NCc1ccnc(OC(F)F)c1)N[C@@H]1CCOC2(CCC2)C1', 'human Kv7.2 (Homo sapiens (Human))', 'EC50', '260 nM'),
  ('O=C(NC1CC2(CCC2)C1)NC(CO)c1ccnc(OCC(F)(F)F)c1 (stereo not shown)', 'human Kv7.2 (Homo sapiens (Human))', 'EC50', '70 nM'),
  ('O=C(NCc1ccnc(OC(F)F)c1)NC1C(F)(F)C12CCC2 (stereo not shown)', 'human Kv7.2 (Homo sapiens (Human))', 'EC50', '340 nM'),
  ('O=C(NCc1ccnc(OC(F)F)c1)NC1CCOC2(CCCC2(F)F)C1 (stereo not shown)', 'human Kv7.2 (Homo sapiens (Human))', 'EC50', '210 nM'),
  ('O=C(NCc1ccnc(OC(F)F)c1)NC1COC2(CCCC2)C1 (stereo not shown)', 'human Kv7.2 (Homo sapiens (Human))', 'EC50', '500 nM'),
  ('O=C(NCc1ccnc(C(F)(F)F)c1)NC1CC2(CCC2)C1', 'human Kv7.2 (Homo sapiens (Human))', 'EC50', '190 nM'),
  ('O=C(NCc1ccnc(OC(F)F)c1)NC1CC2(CC2)C1', 'human Kv7.2 (Homo sapiens (Human))', 'EC50', '60 nM'),
  ('O=C(NCc1ccnc(OC(F)F)c1)NC1CCC2(CC1)CC2(F)F (stereo not shown)', 'human Kv7.2 (Homo sapiens (Human))', 'EC50', '140 nM'),
  ('O=C(NCc1ccnc(OC(F)F)c1)N[C@H]1CC2(CCC2)[C@H]1O (racemic)', 'human Kv7.2 (Homo sapiens (Human))', 'EC50', '440 nM'),
  ('O=C(NCc1ccnc(OC(F)F)c1)NC1CCOC2(CCCC2)C1 (stereo not shown)', 'human Kv7.2 (Homo sapiens (Human))', 'EC50', '260 nM');
